Test system: A549
procedure details: NCI tumour cell line growth inhibition, 48 h
Activity calls are given as the source filed them. Cut-off read from the data, not from the text of the source: active = GI50 up to about 1.1 µM and inactive = higher.
Can you answer with just one of these options? class 1 for active, class 0 for inactive

Worked examples, 5 molecules total:
O=C(OCCO)C1CC2CC1C1(C2)OCCO1 (stereo not given) | class 0
Cc1cccc2c1CCC21OC(=O)c2c1ccc1ccccc21 (stereo not given) | class 0
NS(=O)(=O)c1nnc(NC(=O)c2ccccc2)s1 | class 0
COC1=CC(C2c3cc4c(cc3[C@@H](Nc3ccc(F)cc3)C3COC(=O)[C@H]23)OCO4)=CC(=O)C1=O (stereo not given in full) | class 0
Cc1nc2c(n1C)C(=O)c1nc(CBr)[nH]c(=O)c1C2=O | class 0

[ask] Could you kindly confirm the outcome this assay logged for `CCOC(=O)c1sc2[n+](c1C)C(=O)/C(=C/c1ccc([N+](=O)[O-])cc1)S2` ?
[reply] class 0

[ask] O=C1NCC2(CCN(CC3COc4ccccc4O3)CC2)N1c1ccccc1 (stereo not given) ?
[reply] class 0

[ask] Lookup S=C1Nc2ccccc2SC1c1ccccc1 (stereo not given)
[reply] class 0

[ask] Let us now turn to CC1CC[C@]2(C(=O)O)CCC3(C)C(=C2[C@H]1C)C=CC1[C@@]2(C)CC[C@H](O)C(C)(C)C2CC[C@]13C (stereo not given in full)
[reply] class 0

[ask] Same thing, different molecule: `CCc1c2c([nH]c(=S)c1C#N)CCC2`
[reply] class 0

[ask] Check COc1ccc(/C=c2/sc3n(c2=O)C(c2ccccc2)C2(O)CCCCC2N=3)cc1 (stereo not given) too.
[reply] class 0

[ask] Follow-up entry: `CC1(C)OCC(CO)(Nc2nc(N3CC3)nc(N3CC3)n2)CO1`
[reply] class 0

[ask] Quick one: `CCOC(=O)C(=C=Cc1cccs1)C(=O)c1ccccc1`
[reply] class 0

[ask] Next molecule: COc1cc(C2S/C(=C/c3ccccc3)C(=O)N2c2cccc(Cl)c2)cc(OC)c1OC (stereo not given)
[reply] class 0

[ask] Check `COc1cc(OC(=O)c2ccccc2)cc2c1C(=O)C=CC2=O` too.
[reply] class 0

[ask] Same lookup for `COc1ccc(/C=N/NC(=S)Nc2cc(C)ccc2OC)cc1` , please.
[reply] class 0

[ask] # iterate: `C[C@@H]1C[C@H](O)[C@]2(O)O[C@@H]3C[C@@]4(C=O)[C@@H](CC=C5[C@@H]4CC[C@]4(C)[C@@H](C6=CC(=O)OC6)CC[C@]54O)C[C@H]3O[C@@H]2O1`
[reply] class 1

[ask] Okay, and CC(=O)C(C(=O)c1ccc(C)cc1)[C@H]1OC(C)(C)O[C@H]1[C@H]1COC(C)(C)O1 (stereo not given in full) ?
[reply] class 0

[ask] Request: O=NN(CC1(O)OCC(O)C(O)C1O)C(Cc1c[nH]c2ccccc12)C(=O)O (stereo not given)
[reply] class 0

[ask] What do you have for `Cc1ccc(Cc2n[nH]c(=O)n2-c2ccccc2)cc1` ?
[reply] class 0

* * *

Collected GI50 values appear next to each entry.
System: SR
procedure details: NCI tumour cell line growth inhibition, 48 h
Activity calls are given as the source filed them. Rule as the data show it: active = GI50 up to about 1.1 µM and inactive = higher.

Cc1cccc(C)c1CO | > 100 µM (inactive)
c1csc(-c2ccc(-c3ccsc3)s2)c1 | > 100 µM (inactive)
O=C(OCCN1CCCCC1)C(c1ccccc1)C1(O)CCSCC1 (stereo not given) | > 100 µM (inactive)
CC(=O)Oc1ccc(/C=C/C(=O)O[C@@H](C(=O)O)[C@@H](OC(=O)/C=C/c2ccc(OC(C)=O)c(OC(C)=O)c2)C(=O)O)cc1OC(C)=O | > 100 µM (inactive)
Cc1ccc2c(n1)NC(=O)C(Cc1ccccc1)(N=[N+]=[N-])C2=O (stereo not given) | > 100 µM (inactive)

[ask] Need GI50, item `CC(C)(C)NNC(=O)/C(=C/c1ccc([N+](=O)[O-])cc1)NC(=O)c1ccccc1`
[reply] 21.6 µM (inactive)

[ask] Entry `O=C(O)Cc1ccc(N2N=C(c3ccccc3)CC2=O)cc1` please
[reply] > 100 µM (inactive)

[ask] Cool, now `CCCc1cn2c(/C=N/N=C(N)N)c(-c3c(OC)ccc(OC)c3[N+](=O)[O-])nc2s1`
[reply] 2.03 µM (inactive)

[ask] // same read-out, input: `COc1cccc2c(=O)oc(-c3ccc(C(C)(C)C)cc3)nc12`
[reply] 26.1 µM (inactive)

[ask] And what about the compound COC(=O)C1(Cc2cccc(C)c2)Cc2c(C)cccc2C1=O (stereo not given) ?
[reply] > 100 µM (inactive)

* * *

Tested on: MCF7
procedure details: NCI tumour cell line growth inhibition, 48 h
The source made the active and inactive calls. Cut-off read from the data, not from the text of the source: active = GI50 up to about 1.1 µM and inactive = higher.
Log the outcome using a class from yes (1) for active, no (0) for inactive

CC1(C)OC[C@@H]([C@H](C=O)OCc2ccccc2)O1 | no (0)

[ask] Field: outcome | Entry: `c1ccc(CSc2nc(N3CCOCC3)c3cn[nH]c3n2)cc1`
[reply] no (0)

[ask] Next molecule up: `COc1cc(C(=O)N(Cc2cccnc2)C(=S)N(Cc2cccnc2)C(=O)c2cc(OC)c(OC)c(OC)c2)cc(OC)c1OC`
[reply] no (0)

[ask] Same thing, different molecule: `CCCc1cn2c(/C=N/N=C(N)N)c(-c3c(OC)ccc(OC)c3[N+](=O)[O-])nc2s1`
[reply] no (0)

[ask] Same lookup for FC1C2=C(SC1(F)F)C1CCC2C1 (stereo not given) , please.
[reply] no (0)

[ask] Check `Cc1n(CC(=O)c2ccc([N+](=O)[O-])cc2)c2c([n+]1CC(C)C)C(=O)c1ccccc1C2=O` too.
[reply] yes (1)

* * *

Tested on: COLO 205
procedure details: NCI tumour cell line growth inhibition, 48 h
Active and inactive are the calls of the source. Cut-off read from the data, not from the text of the source: active = GI50 up to about 1.1 µM and inactive = higher.
Measured GI50 accompanies every entry in the list below.

Here are 4 compounds together with their reported answers.
COc1nc2c(c(O)c(C)c(=O)n2OC2OCC(OC(C)=O)C(OC(C)=O)C2OC(C)=O)c(=O)n1C (stereo not given) | > 100 µM (inactive)
O=C1C(Cl)N(c2ccc([N+](=O)[O-])cc2)C1c1c[nH]c2ccccc12 (stereo not given) | > 100 µM (inactive)
N#CC1=C(c2ccccc2)OC2(N)OC(c3ccccc3)=C(C#N)C12C#N (stereo not given) | > 100 µM (inactive)
C=C1C2=C(CCCC2)C(=O)OC12CCCCC2 | 51.2 µM (inactive)

[ask] Which measured GI50 value corresponds to `COc1cc2nn(-c3ccccc3)nc2c2nonc12` ?
[reply] > 100 µM (inactive)

* * *

GI50 reference
System: NCI-H522
procedure details: NCI tumour cell line growth inhibition, 48 h
The source made the active and inactive calls. Rule as the data show it: active = GI50 up to about 1.1 µM and inactive = higher.

Study these solved cases before continuing.
C=CCC1(CC)C(=O)NC(=O)NC1=O | > 100 µM (inactive)
Cc1nc(N)sc1/N=N/c1ccccc1Br | 14.2 µM (inactive)
CC1=CC[C@@]2(CO)[C@@H]([C@@H]1C)[C@H]1CC[C@@H]3[C@@]4(C)CC[C@H](O)C(C)(C)[C@@H]4CC[C@@]3(C)[C@]1(C)C[C@@H]2O | 8.91 µM (inactive)
O=C(O)Cc1ccc(N2N=C(c3ccccc3)CC2=O)cc1 | > 100 µM (inactive)

Could you now look at the following compound, please?
[ask] Query GI50 on NCI-H522 for CCOC(=O)C(NC(=O)CC(C)C)(NC(C)C)C(F)(F)F (stereo not given)
[reply] > 100 µM (inactive)

* * *

System: SF-295
procedure details: NCI tumour cell line growth inhibition, 48 h
Active and inactive are the calls of the source. No stated cut-off is given here; in the data, active = GI50 up to about 1.1 µM and inactive = higher.
Catalogue of GI50 readings, one per entry.

Below are worked cases with known answers.
CN1C(=O)c2c(ccc3c2OCO3)C2C(O)Cc3cc4c(cc3C21)OCO4 (configuration not stated) | 1.71 µM (inactive)
CCOC(=O)/C(C#N)=N\Nc1ccc(-n2c(C)nc3ccc(Br)cc3c2=O)cc1 | 64.7 µM (inactive)

[ask] For the compound `COC(=O)c1ccc(OCCn2nnc(C(=O)NN)c2C(=O)NN)cc1` , what GI50 is on record?
[reply] > 100 µM (inactive)

[ask] Next compound up: `CC(=O)Nc1ccc2c(C)c3c(nc2n1)[nH]c1ccccc13`
[reply] 34.3 µM (inactive)

[ask] Lookup Cc1c2ccccc2c(C2C3C(=O)N(c4ccc(Br)cc4)C(=O)C3ON2C(C(N)=O)c2ccccc2)c2ccccc12 (configuration not stated)
[reply] 6.59 µM (inactive)

[ask] Entry Nc1ncnc2c1ncn2C1OC(COP(=O)(O)CP(=O)(O)O)C(O)C1O (configuration not stated) please
[reply] > 100 µM (inactive)

[ask] Try the compound `COc1ccc(CCn2nccc2C)cc1`
[reply] > 100 µM (inactive)

[ask] How about `O=C(O)/C(Cl)=C(\Cl)Nc1cccc(C(F)(F)F)c1` ?
[reply] > 100 µM (inactive)

* * *

System: DMS-114
procedure details: NCI tumour cell line growth inhibition, 48 h
The source made the active and inactive calls. Cut-off read from the data, not from the text of the source: active = GI50 up to about 1.1 µM and inactive = higher.
parameter measured: GI50

[ask] Write down the reported GI50 of `O=S(=O)(OI(OI(OS(=O)(=O)C(F)(F)F)c1ccccc1)c1ccccc1)C(F)(F)F` , test system: DMS-114.
[reply] 5.18 µM (inactive)

[ask] And `Cc1nc2c(n1C)C(=O)c1nc(CBr)[nH]c(=O)c1C2=O` ?
[reply] 75.9 µM (inactive)

[ask] Next entry: `CC1(C)OCC(CO)(Nc2nc(N3CC3)nc(N3CC3)n2)CO1`
[reply] 4.65 µM (inactive)

[ask] Param item: `O=C1CSC(/C(=C/c2ccccc2)c2nc3ccccc3[nH]2)=N1`
[reply] 32.3 µM (inactive)

[ask] What do you have for COc1c(OC2OC(CO)C(O)C(O)C2O)cc2c(c1OC)-c1ccc(OC)c(=O)cc1[C@@H](NC(C)=O)CC2 (some centres undefined) ?
[reply] 44.7 µM (inactive)

[ask] Can you check Cc1cccc(N2C(=O)C(=O)C(c3nc4ccccc4s3)/C(=N/NC(=S)NN)C2=O)c1C (centres undefined) next?
[reply] > 100 µM (inactive)

[ask] Field entry: `O=c1c(-c2ccccc2)c2oc(c1-c1ccccc1)CSCc1cccc(c1)CSC2`
[reply] 36.9 µM (inactive)

[ask] Further, for `c1ccc([P+](Cc2csnn2)(c2ccccc2)c2ccccc2)cc1` ?
[reply] 64 µM (inactive)

[ask] How about this compound: `COc1c(O)c(C=O)c2c(O)c(-c3c(C)cc4c(C(C)C)c(OC)c(O)c(C=O)c4c3O)c(C)cc2c1C(C)C`
[reply] 3.08 µM (inactive)
